System: human platelets
Test: Repression of human platelet agglutination in vitro (PRP; PAF, collagen or ADP as inducer)
Assay type: cell-based
Conditions: inducer collagen 1 μg/ml, test compound 20 μM, read-out: repression ratio of platelet agglutination, Collagen
Method: Effects of repressing human platelet agglutination of the compounds of the present invention were examined in vitro. […] To 0.2 ml of the PRP as prepared above, 25 μl portions of test solutions in various concentrations were added and each mixture was incubated at 37° C. for three min. […] The repressing effect of each test compound was evaluated as the repression ratio with the use of PRP containing vehicle as control. […]
metric-name: inhibition at 20 µM (%)
Answers are plain numbers, in %.

Answered examples (6):
# compound, measure-unit, meas-value
data = [
    ("COc1c(O)c(C)c(C/C=C(\\C)CC/C=C(\\C)CC/C=C(\\C)C(=O)O)c(OC)c1OC", "%", 2.8),
    ("COc1c(O)c(C)c(C/C=C(\\C)CC/C=C(\\C)C(=O)O)c(OC)c1OC", "%", 45.4),
    ("COc1c(O)c(C)c(C/C=C(\\C)CC/C=C(\\C)CC/C=C(\\C)CC/C=C(\\C)C(=O)O)c(OC)c1OC", "%", 21.4),
    ("COC1=C(OC)C(=O)C(C/C=C(\\C)CC/C=C(\\C)CC/C=C(\\C)CC/C=C(\\C)CC/C=C(\\C)CC/C=C(\\C)CC/C=C(\\C)CC/C=C(\\C)CC/C=C(\\C)CCC=C(C)C)=C(C)C1=O [CoQ10, Ubidecarenone, reference compound]", "%", 6.5),
    ("COc1c(O)c(C)c(C/C=C(\\C)CC/C=C(\\C)CC/C=C(\\C)CC/C=C(\\C)CC/C=C(\\C)C(=O)O)c(OC)c1OC", "%", 5),
    ("COC1=C(OC)C(=O)C(C/C=C(\\C)CC/C=C(\\C)CC/C=C(\\C)C(=O)O)=C(C)C1=O", "%", 3.2),
]

List reported inhibition at 20 µM for each of these compounds:
1. COC1=C(OC)C(=O)C(C/C=C(\C)CC/C=C(\C)CC/C=C(\C)CC/C=C(\C)C(=O)O)=C(C)C1=O
2. COC1=C(OC)C(=O)C(C/C=C(\C)CC/C=C(\C)C(=O)O)=C(C)C1=O

1: 62.4; 2: 38.1

====

Tested on: Phospholipase A2
Assay: Phospholipase A2 inhibition (myristic acid liberated from myristyllecithin, HPLC)
Type: biochemical
Settings: final concentration 4 μM
Experimental: Prior to the determination of the activity of phospholipase A by determining myristic acid liberated from a substrate (myristyllecithin) by said enzyme by high-performance liquid chromatography, the following test compounds were added in amounts as shown in Table 1 to examine the effects thereof. CoQ10 was employed for the purpose of comparison. [drawing 17] […]
metric-name: Phospholipase A activity (physiological saline = 100) (%)
Answers are plain numbers, in %.

Answered examples (3):
# sample-smiles, meas-value
records = [
    ("COC1=C(OC)C(=O)C(C/C=C(\\C)CC/C=C(\\C)CC/C=C(\\C)CC/C=C(\\C)C(=O)O)=C(C)C1=O", 66),
    ("COC1=C(OC)C(=O)C(C/C=C(\\C)CC/C=C(\\C)CC/C=C(\\C)C(=O)O)=C(C)C1=O", 25),
    ("COc1c(O)c(C)c(C/C=C(\\C)CC/C=C(\\C)CC/C=C(\\C)C(=O)O)c(OC)c1OC", 24),
]

Consider now this further compound.
Item COc1c(O)c(C)c(C/C=C(\C)CC/C=C(\C)CC/C=C(\C)CC/C=C(\C)C(=O)O)c(OC)c1OC has what recorded Phospholipase A activity (physiological saline = 100)?
55

====

system: human platelets; test: Repression of human platelet agglutination in vitro (PRP; PAF, collagen or ADP as inducer); type: cell-based; settings: inducer ADP 5 μM, test compound 200 μM, read-out: repression ratio of platelet agglutination, ADP
Give measured inhibition at 200 µM for each item. Keep answers brief.
Answers are plain numbers, in %.

Answered examples (3):
# sample-smiles, inhibition at 200 µM, %
records = [
    ("COC1=C(OC)C(=O)C(C/C=C(\\C)CC/C=C(\\C)C(=O)O)=C(C)C1=O", 18.2),
    ("COC1=C(OC)C(=O)C(C/C=C(\\C)CC/C=C(\\C)CC/C=C(\\C)CC/C=C(\\C)C(=O)O)=C(C)C1=O", 23.1),
    ("COc1c(O)c(C)c(C/C=C(\\C)CC/C=C(\\C)CC/C=C(\\C)CC/C=C(\\C)CC/C=C(\\C)C(=O)O)c(OC)c1OC", 26.3),
]

Consider now this further compound.
Item COC1=C(OC)C(=O)C(C/C=C(\C)CC/C=C(\C)CC/C=C(\C)CC/C=C(\C)CC/C=C(\C)C(=O)O)=C(C)C1=O has what recorded inhibition at 200 µM?
22

====

tested on: human platelets; assay: Repression of human platelet agglutination in vitro (PRP; PAF, collagen or ADP as inducer); format: cell-based; details: inducer collagen 1 μg/ml, test compound 100 μM, read-out: repression ratio of platelet agglutination, Collagen
Each entry gets Not fulfilled if its inhibition at 100 µM stays under 30%, and Fulfilled if its inhibition at 100 µM is 30% or above.

Completed entries (count: 8):
# compound, group-label
data = [
    ("COc1c(O)c(C)c(C/C=C(\\C)CC/C=C(\\C)CC/C=C(\\C)CC/C=C(\\C)C(=O)O)c(OC)c1OC [Compound B]", "Fulfilled"),
    ("COC1=C(OC)C(=O)C(C/C=C(\\C)CC/C=C(\\C)CC/C=C(\\C)CC/C=C(\\C)CC/C=C(\\C)CC/C=C(\\C)C(=O)O)=C(C)C1=O [Compound J]", "Not fulfilled"),
    ("COC1=C(OC)C(=O)C(C/C=C(\\C)CC/C=C(\\C)CC/C=C(\\C)CC/C=C(\\C)C(=O)O)=C(C)C1=O [Compound A]", "Fulfilled"),
    ("COC1=C(OC)C(=O)C(C/C=C(\\C)CC/C=C(\\C)C(=O)O)=C(C)C1=O [Compound H]", "Fulfilled"),
    ("COc1c(O)c(C)c(C/C=C(\\C)CC/C=C(\\C)C(=O)O)c(OC)c1OC [Compound E]", "Fulfilled"),
    ("COC1=C(OC)C(=O)C(C/C=C(\\C)CC/C=C(\\C)CC/C=C(\\C)CC/C=C(\\C)CC/C=C(\\C)C(=O)O)=C(C)C1=O [Compound I]", "Not fulfilled"),
    ("COC1=C(OC)C(=O)C(C/C=C(\\C)CC/C=C(\\C)CC/C=C(\\C)CC/C=C(\\C)CC/C=C(\\C)CC/C=C(\\C)CC/C=C(\\C)CC/C=C(\\C)CC/C=C(\\C)CCC=C(C)C)=C(C)C1=O [CoQ10, Ubidecarenone, reference compound]", "Not fulfilled"),
    ("COc1c(O)c(C)c(C/C=C(\\C)CC/C=C(\\C)CC/C=C(\\C)C(=O)O)c(OC)c1OC [Compound D]", "Fulfilled"),
]

Quick check, inhibition at 100 µM >= 30%? COc1c(O)c(C)c(C/C=C(\C)CC/C=C(\C)CC/C=C(\C)CC/C=C(\C)CC/C=C(\C)C(=O)O)c(OC)c1OC [Compound F]
Not fulfilled

Quick check, inhibition at 100 µM >= 30%? COC1=C(OC)C(=O)C(C/C=C(\C)CC/C=C(\C)CC/C=C(\C)C(=O)O)=C(C)C1=O [Compound C]
Not fulfilled
